Each record here notes measured AUSC (area under the survival curve), Median.
Test system: human myeloma cell lines (HMCLs)
methodNotes: In vitro chemosensitivity (cytotoxicity) assay, CellTiter-Glo luminescent cell viability, panel of 50 HMCLs
Type: cell-based
runConditions: median across panel of 50 HMCLs; trapezoidal rule; 48 hours post treatment
Kindly provide the numeric value in nM only, without the unit symbol.

Consider the worked cases shown below.
{"columns": ["smilesText", "val"],
 "data": [
  ["CC(C)C[C@H](NC(=O)[C@H](Cc1ccccc1)NC(=O)c1cnccn1)B(O)O", 1524.0],
  ["CC(C)C[C@H](NC(=O)CNC(=O)c1cc(Cl)ccc1Cl)B(O)O", 6456.0],
  ["CC(C)C[C@H](NC(=O)[C@H](CCc1ccccc1)NC(=O)CN1CCOCC1)C(=O)N[C@@H](Cc1ccccc1)C(=O)N[C@@H](CC(C)C)C(=O)[C@@]1(C)CO1", 1448.5]
]}

Below: the item to evaluate.
Value of measured AUSC (area under the survival curve), Median for the entry `COC[C@H](NC(=O)c1cnc(C)s1)C(=O)N[C@@H](COC)C(=O)N[C@@H](Cc1ccccc1)C(=O)[C@@]1(C)CO1` : 2885.0

* * *

Tested on: human myeloma cell lines (HMCLs)
methodNotes: In vitro chemosensitivity (cytotoxicity) assay, CellTiter-Glo luminescent cell viability, panel of 50 HMCLs
Assay type: cell-based
runConditions: mean across panel of 50 HMCLs; single agent; viability 48 hours post treatment; read-out: IC50, Mean
propertyName: IC50 (nM)
Kindly provide the numeric value in nM only, without the unit symbol.

human myeloma cell lines (HMCLs) data for `CC(C)C[C@H](NC(=O)CNC(=O)c1cc(Cl)ccc1Cl)B(O)O` ; its IC50: 155
